Cited source for all entries: patent US20260116991A1

- STUDY_TARGET: T1, murine GPC3-his protein (Sino Biological, Cat. No. 50989-M08B) (murine, UniProt Q8CFZ4 25-558)
- T1 construct: Bought protein; also called murine GPC3 protein
- T1 sequence (Q8CFZ4 25-558 limits assumed): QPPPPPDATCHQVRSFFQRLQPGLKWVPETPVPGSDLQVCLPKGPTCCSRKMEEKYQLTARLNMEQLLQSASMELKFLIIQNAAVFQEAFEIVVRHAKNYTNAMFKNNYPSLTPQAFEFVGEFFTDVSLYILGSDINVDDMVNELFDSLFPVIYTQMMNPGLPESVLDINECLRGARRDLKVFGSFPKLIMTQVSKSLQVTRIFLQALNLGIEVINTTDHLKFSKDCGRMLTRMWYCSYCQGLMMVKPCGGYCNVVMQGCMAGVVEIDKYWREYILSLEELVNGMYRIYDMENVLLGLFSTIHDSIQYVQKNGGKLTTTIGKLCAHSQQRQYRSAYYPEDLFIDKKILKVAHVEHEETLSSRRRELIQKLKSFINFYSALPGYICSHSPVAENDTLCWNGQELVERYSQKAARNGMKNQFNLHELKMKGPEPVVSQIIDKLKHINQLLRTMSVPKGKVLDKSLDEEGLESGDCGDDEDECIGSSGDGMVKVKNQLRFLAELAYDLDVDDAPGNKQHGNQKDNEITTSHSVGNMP
- TEST: ELISA, coated murine GPC3-His;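 further: antigen coated on plates at 1 µg/mL, test antibody bound for 2 h at 37 °C, detected with HRP-conjugated secondary antibody and TMB substrate after acid stop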
Given measured OD450 at 10 nM antibody, output Criterion met if it is greater than or equal to 0.06 OD450 nm and Criterion not met if not.

| BINDER | CLASS_NAME |
| --- | --- |
| F1.2.14 human-murine chimeric antibody (antibody, human IgG1, kappa, V domains shown) VH: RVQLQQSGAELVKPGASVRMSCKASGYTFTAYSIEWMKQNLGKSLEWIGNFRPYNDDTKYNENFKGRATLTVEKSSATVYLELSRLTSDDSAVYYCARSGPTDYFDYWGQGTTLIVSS VL: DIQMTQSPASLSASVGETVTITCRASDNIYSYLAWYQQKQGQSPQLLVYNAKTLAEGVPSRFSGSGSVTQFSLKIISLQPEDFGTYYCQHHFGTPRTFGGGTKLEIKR | Criterion met |
| F1.110.24 human-murine chimeric antibody (antibody, human IgG1, kappa, V domains shown) VH: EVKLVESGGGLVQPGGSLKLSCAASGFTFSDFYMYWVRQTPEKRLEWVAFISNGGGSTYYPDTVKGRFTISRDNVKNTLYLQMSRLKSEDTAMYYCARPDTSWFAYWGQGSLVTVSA VL: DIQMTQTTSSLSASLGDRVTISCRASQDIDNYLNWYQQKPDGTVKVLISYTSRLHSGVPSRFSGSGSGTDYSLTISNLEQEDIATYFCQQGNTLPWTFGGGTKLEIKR | Criterion met |
| F1.111.11 human-murine chimeric antibody (antibody, human IgG1, kappa, V domains shown) VH: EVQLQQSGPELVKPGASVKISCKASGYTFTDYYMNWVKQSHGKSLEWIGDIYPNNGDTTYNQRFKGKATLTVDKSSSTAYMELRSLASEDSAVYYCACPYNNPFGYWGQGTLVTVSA VL: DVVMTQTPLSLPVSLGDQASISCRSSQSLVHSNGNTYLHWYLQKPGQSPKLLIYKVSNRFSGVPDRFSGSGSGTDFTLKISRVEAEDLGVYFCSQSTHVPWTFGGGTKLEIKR | Criterion met |

Prompt line: Decide: is the reported value of OD450 at 10 nM antibody for F3.54.12 human-murine chimeric antibody (antibody, human IgG1, kappa, V domains shown) VH: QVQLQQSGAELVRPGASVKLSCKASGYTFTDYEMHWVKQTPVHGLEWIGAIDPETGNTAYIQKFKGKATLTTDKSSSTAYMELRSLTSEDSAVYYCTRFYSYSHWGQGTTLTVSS VL: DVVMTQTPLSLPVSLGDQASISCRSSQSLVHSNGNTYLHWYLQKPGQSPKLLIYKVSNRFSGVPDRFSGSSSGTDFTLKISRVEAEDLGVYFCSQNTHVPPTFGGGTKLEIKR equal to or greater than 0.06 OD450 nm?
Response line: Criterion met

Prompt line: Reported OD450 at 10 nM antibody at or above 0.06 OD450 nm? F2.169.2 human-murine chimeric antibody (antibody, human IgG1, kappa, V domains shown) VH: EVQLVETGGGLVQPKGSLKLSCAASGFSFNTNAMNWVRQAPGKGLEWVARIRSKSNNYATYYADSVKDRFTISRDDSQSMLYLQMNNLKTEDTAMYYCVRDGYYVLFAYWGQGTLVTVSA VL: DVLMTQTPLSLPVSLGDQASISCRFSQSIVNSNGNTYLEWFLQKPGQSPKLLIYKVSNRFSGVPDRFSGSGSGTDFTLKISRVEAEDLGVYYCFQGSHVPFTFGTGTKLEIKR
Response line: Criterion met
